- study.system: CDK7 (Homo sapiens, UniProt P50613)
- Construct: purchased Life Technologies (assay service)
- Sequence (P50613 whole entry): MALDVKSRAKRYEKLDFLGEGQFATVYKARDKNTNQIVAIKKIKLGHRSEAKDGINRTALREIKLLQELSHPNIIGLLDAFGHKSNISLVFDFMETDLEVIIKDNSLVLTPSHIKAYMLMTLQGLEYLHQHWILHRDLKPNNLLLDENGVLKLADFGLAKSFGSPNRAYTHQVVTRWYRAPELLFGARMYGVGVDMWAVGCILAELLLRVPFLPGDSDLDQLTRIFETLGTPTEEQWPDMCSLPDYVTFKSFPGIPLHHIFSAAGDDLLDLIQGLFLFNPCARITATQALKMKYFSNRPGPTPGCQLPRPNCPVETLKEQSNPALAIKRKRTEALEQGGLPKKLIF
- Sequence (P51946 whole entry partner): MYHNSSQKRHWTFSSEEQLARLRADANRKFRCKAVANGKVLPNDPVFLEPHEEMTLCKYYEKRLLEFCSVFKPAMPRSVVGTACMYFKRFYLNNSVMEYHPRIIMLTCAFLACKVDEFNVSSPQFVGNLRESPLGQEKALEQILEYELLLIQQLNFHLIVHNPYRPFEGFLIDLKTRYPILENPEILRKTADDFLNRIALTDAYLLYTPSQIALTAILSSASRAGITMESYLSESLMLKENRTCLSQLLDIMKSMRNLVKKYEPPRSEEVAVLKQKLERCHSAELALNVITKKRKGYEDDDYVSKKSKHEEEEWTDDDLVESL
- Sequence (P51948 whole entry partner): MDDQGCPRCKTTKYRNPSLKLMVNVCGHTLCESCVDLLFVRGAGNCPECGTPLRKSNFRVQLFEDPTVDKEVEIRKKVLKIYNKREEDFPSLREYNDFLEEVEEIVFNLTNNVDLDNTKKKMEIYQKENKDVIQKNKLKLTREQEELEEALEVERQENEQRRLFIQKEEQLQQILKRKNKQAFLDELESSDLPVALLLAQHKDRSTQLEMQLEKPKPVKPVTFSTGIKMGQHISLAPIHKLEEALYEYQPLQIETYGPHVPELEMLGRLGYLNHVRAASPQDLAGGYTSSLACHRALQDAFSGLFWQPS
- method.description: Adapta kinase assay (Life Technologies), CDK7
- Assay type: biochemical
- protocol.conditions: Table 2, co-factors cyclin H and MNAT1, read-out: CDK7 (calculated IC50)
pIC50: −log10 of the molar value.
Would you mind telling me the reported pIC50 of each entry?

Given CN(C)C/C=C/C(=O)Nc1ccc(C(=O)N[C@@H]2CCC[C@H](Nc3ncc(Cl)c(-c4c[nH]c5ccccc45)n3)C2)cc1 , state its recorded pIC50.
6.00 to 7.00

Entry CN(C)C/C=C/C(=O)Nc1ccc(C(=O)N[C@H]2CCC[C@@H](Nc3ncc(Cl)c(-c4c[nH]c5ccccc45)n3)C2)cc1 has what pIC50?
> 7.00

Which pIC50 value is on record for CN(C)C/C=C/C(=O)Nc1ccc(C(=O)NC2CCCC(Nc3ncc(Cl)c(-c4c[nH]c5ccccc45)n3)C2)cc1 (stereo not drawn) ?
> 7.00

Quick check: pIC50 of CN(C)C/C=C/C(=O)Nc1ccc(C(=O)N[C@@H]2CCC[C@@H](Nc3ncc(Cl)c(-c4c[nH]c5ccccc45)n3)C2)cc1 ?
> 7.00

Please report the recorded pIC50 for CN(C)C/C=C/C(=O)Nc1ccc(C(=O)N[C@H]2CCC[C@H](Nc3ncc(Cl)c(-c4c[nH]c5ccccc45)n3)C2)cc1 .
6.00 to 7.00

What value of pIC50 has been recorded for this entry: CN(C)C/C=C/C(=O)Nc1ccc(C(=O)NC2CCC(Nc3ncc(Cl)c(-c4c[nH]c5ccccc45)n3)CC2)cc1 (stereo not drawn)
> 7.00

###

endpoint: IC50

Give recorded IC50 with CDK8 (Homo sapiens, UniProt P49336) for the following compound: CN(C)C/C=C/C(=O)Nc1ccc(C(=O)NC2CCCC(Nc3ncc(Cl)c(-c4c[nH]c5ccccc45)n3)C2)cc1 (stereo not shown) [Compound 100]
Sequence (P49336 whole entry): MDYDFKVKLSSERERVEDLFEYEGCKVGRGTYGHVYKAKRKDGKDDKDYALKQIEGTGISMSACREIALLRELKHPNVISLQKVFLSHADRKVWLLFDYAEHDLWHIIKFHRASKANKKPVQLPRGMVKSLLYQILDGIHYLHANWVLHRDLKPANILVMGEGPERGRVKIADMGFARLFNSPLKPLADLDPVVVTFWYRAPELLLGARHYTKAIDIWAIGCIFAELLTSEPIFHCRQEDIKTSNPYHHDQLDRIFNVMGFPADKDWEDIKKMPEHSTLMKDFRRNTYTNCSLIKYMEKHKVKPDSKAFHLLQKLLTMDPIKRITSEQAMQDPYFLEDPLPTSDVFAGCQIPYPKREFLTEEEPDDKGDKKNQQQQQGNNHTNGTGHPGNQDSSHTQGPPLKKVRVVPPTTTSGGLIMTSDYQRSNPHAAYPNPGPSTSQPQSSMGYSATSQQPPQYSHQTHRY
Sequence (P24863 whole entry partner): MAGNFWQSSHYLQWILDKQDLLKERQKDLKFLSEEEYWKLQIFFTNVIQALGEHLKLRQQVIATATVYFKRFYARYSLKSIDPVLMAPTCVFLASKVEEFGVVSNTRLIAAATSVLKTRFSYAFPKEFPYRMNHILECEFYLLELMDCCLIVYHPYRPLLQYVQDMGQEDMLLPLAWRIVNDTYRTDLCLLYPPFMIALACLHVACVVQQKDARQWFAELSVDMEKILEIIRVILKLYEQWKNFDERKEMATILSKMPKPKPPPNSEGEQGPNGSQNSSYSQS
100 to 1000 nM

###

- System: MNNG-HOS Cl #5
- method.description: Cell proliferation (CellTiter-Glo, 72 hour), MNNG-HOS Cl #5
- Type: cell-based
- protocol.conditions: osteosarcoma cell line, read-out: MNNG-HOS Cl#5 inhibition of proliferation (IC50)
pIC50: −log10 of the molar value.
endpoint: pIC50

Data request, read-out pIC50, for CN(C)C/C=C/C(=O)Nc1ccc(C(=O)N[C@H]2CCC[C@H](Nc3ncc(Cl)c(-c4c[nH]c5ccccc45)n3)C2)cc1
< 5.30

Name the reported pIC50 value associated with the molecule CC(C)[C@]12O[C@H]1[C@@H]1O[C@]13[C@]1(O[C@H]1C[C@H]1C4=C(CC[C@@]13C)C(=O)OC4)[C@@H]2O [Triptolide, triptolide, reference compound]
> 6.30

Returns the measured pIC50 for the input molecule. Input: CN1CC[C@H](c2c(O)cc(O)c3c(=O)cc(-c4ccccc4Cl)oc23)[C@H](O)C1 [Flavopiridol, flavopiridol, reference compound]
5.30 to 6.30

Need pIC50, item CN(C)C/C=C/C(=O)Nc1ccc(C(=O)N[C@H]2CCC[C@@H](Nc3ncc(Cl)c(-c4c[nH]c5ccccc45)n3)C2)cc1
< 5.30

###

- study.system: CDK7 (Homo sapiens, UniProt P50613)
- Construct: purchased Life Technologies (assay service)
- method.description: Adapta kinase assay (Life Technologies), CDK7
- Type: biochemical
- protocol.conditions: Table 1C, co-factors cyclin H and MNAT1, read-out: CDK7 IC50
endpoint: IC50

What does the data say about its IC50? Entry: CN(C)C/C=C/C(=O)Nc1ccc(C(=O)N[C@H]2CCC[C@H](Nc3ncc(Cl)c(-c4c[nH]c5ccccc45)n3)C2)cc1
100 to 1000 nM

Suppose we examine the compound C=CC(=O)Nc1ccc(C(=O)N[C@H]2CCC[C@@H](Nc3ncc(Cl)c(-c4c(C)[nH]c5ccccc45)n3)C2)cc1 ; what IC50 value has been reported?
< 100 nM

Please look up its IC50: CN(C)C/C=C/C(=O)Nc1ccc(C(=O)NC2CCCC(Nc3ncc(Cl)c(-c4c[nH]c5ccccc45)n3)C2)cc1 (stereo not shown)
< 100 nM

# get_value(readout='IC50', item= CN(C)C/C=C/C(=O)Nc1ccc(C(=O)N[C@H]2CCC[C@@H](Nc3ncc(Cl)c(-c4cccnc4)n3)C2)cc1 )
100 to 1000 nM

What value of IC50 has been reported for the following compound? CN(C)C/C=C/C(=O)Nc1ccc(C(=O)N[C@H]2CCC[C@@H](Nc3nccc(-c4c[nH]c5ccccc45)n3)C2)cc1
> 1000 nM

# query: IC50 of entry C=CC(=O)Nc1ccc(C(=O)N[C@H]2CCC[C@@H](Nc3ncc(C4CC4)c(-c4c[nH]c5ccccc45)n3)C2)cc1
100 to 1000 nM

# input compound: C=CC(=O)Nc1ccc(C(=O)N[C@H]2CCC[C@@H](Nc3ncc(Cl)c(-c4c[nH]c5ccccc45)n3)C2)c(N2CCOCC2)c1 ; wanted: its IC50
100 to 1000 nM

I am curious: what IC50 value has been reported for Cc1noc(C)c1-c1nc(N[C@@H]2CCC[C@H](NC(=O)c3ccc(NC(=O)/C=C/CN(C)C)cc3)C2)ncc1Cl ?
100 to 1000 nM

Item CN(C)C/C=C/C(=O)Nc1ccc(NC(=O)[C@H]2CCC[C@@H](Nc3ncc(Cl)c(-c4c[nH]c5ccccc45)n3)C2)cc1 has what recorded IC50?
< 100 nM

For the compound CN(C/C=C/C(=O)Nc1ccc(C(=O)N[C@H]2CCC[C@@H](Nc3ncc(Cl)c(-c4c[nH]c5ccccc45)n3)C2)cc1)CC(=O)O , what IC50 is on record?
< 100 nM

Give its IC50 value. Item: CN(C)C/C=C/C(=O)Nc1ccc(C(=O)N[C@H]2CC[C@H](Nc3ncc(Cl)c(-c4c[nH]c5ccccc45)n3)CC2)cc1
< 100 nM

IC50 lookup needed for C=CC(=O)Nc1ccc(C(=O)N[C@H]2CCC[C@@H](Nc3ncc(Cl)c(-c4cnn5ccccc45)n3)C2)cc1 , thanks.
< 100 nM

What measured IC50 goes with CC(C)=CC(=O)Nc1ccc(C(=O)N[C@H]2CCC[C@@H](Nc3ncc(Cl)c(-c4c[nH]c5ccccc45)n3)C2)cc1 ?
100 to 1000 nM

Look at this compound and give its reported IC50. C=CC(=O)Nc1ccc(C(=O)N[C@H]2CCC[C@@H](Nc3ncc(Cl)c(-c4n[nH]c5ccccc45)n3)C2)cc1
< 100 nM

Can you look up the measured IC50 of O=C(/C=C/CN1CCOCC1)Nc1ccc(C(=O)N[C@H]2CCC[C@@H](Nc3ncc(Cl)c(-c4c[nH]c5ccccc45)n3)C2)cc1 for me?
< 100 nM

Please give the measured IC50 for this compound: C=CC(=O)Nc1ccc(C(=O)N[C@H]2CC[C@@H](Nc3ncc(Cl)c(-c4c[nH]c5ccccc45)n3)CC2)cc1
< 1000 nM

Which measured IC50 value corresponds to C=CC(=O)Nc1ccc(C(=O)N[C@H]2CCC[C@@H](Nc3ncc(Cl)c(-c4cn(C)c5ccccc45)n3)C2)cc1 ?
100 to 1000 nM

Entry under review: CN(C)C/C=C/C(=O)Nc1ccc(C(=O)N[C@H]2CCC[C@@H](Nc3ncc(C4CC4)c(-c4c[nH]c5ccccc45)n3)C2)cc1 . Reported IC50?
< 100 nM

Which value of IC50 has been reported for CN(C)C/C=C/C(=O)Nc1ccc(CN(C(=O)OC(C)(C)C)[C@H]2CCC[C@@H](Nc3ncc(Cl)c(-c4c[nH]c5ccccc45)n3)C2)cc1 in the records?
100 to 1000 nM

Would you mind telling me what IC50 value was observed for CN(C)C/C=C/C(=O)Nc1ccc(C(=O)NC2CCC(Nc3ncc(Cl)c(-c4c[nH]c5ccccc45)n3)CC2)cc1 (stereo not shown) ?
< 100 nM

Which IC50 reading was recorded for the compound Cc1nc(C)c(-c2nc(NC3CCCC(NC(=O)c4ccc(NC(=O)/C=C/CN(C)C)cc4)C3)ncc2Cl)s1 (stereo not shown) ?
< 100 nM

Requested field: IC50. Item: CN(C)C/C=C/C(=O)Nc1ccc(C(=O)NC2CC(O)CC(Nc3ncc(Cl)c(-c4c[nH]c5ccccc45)n3)C2)cc1 (racemic)
< 100 nM

What IC50 value was documented for this compound, CN(C)C/C=C/C(=O)Nc1ccc(C(=O)N[C@H]2CCC[C@@H](Nc3ncc(Cl)c(-c4c[nH]c5ccccc45)n3)C2)cc1F ?
< 100 nM

Please look up its IC50: CN(C)C/C=C/C(=O)Nc1ccc(CN[C@H]2CCC[C@@H](Nc3ncc(Cl)c(-c4c[nH]c5ccccc45)n3)C2)cc1
< 100 nM

Would you mind telling me what IC50 value was observed for CN1CCN(C/C=C/C(=O)Nc2ccc(C(=O)N[C@H]3CCC[C@@H](Nc4ncc(Cl)c(-c5c[nH]c6ccccc56)n4)C3)cc2)CC1 ?
< 100 nM
